Reference source: ChEMBL document CHEMBL3507680

- ASSAY_NAME: Human HepG2 cell viability assay in 384 well format
- Format: toxicity, cell-based
- Set-up: dose 125 nL, time 70.5 hour; concentration not given beside the values
- PARTICULARS: HepG2 cells, read-out: Inhibition
OUTCOME_MEASURE: cytotoxicity at 70.5 h (%)
Quick reminder: number only, in %, skip the unit.

Suppose we examine the compound "COCCN1C[C@H]2CCN(C(=O)c3cc(C)on3)CC[C@H]2S1(=O)=O" ; what cytotoxicity at 70.5 h value has been reported?
-5.47

Suppose we examine the compound "FC(F)(F)c1c[nH]c(C2CCN(c3ncccn3)CC2)n1" ; what cytotoxicity at 70.5 h value has been reported?
-15.4

Suppose we examine the compound "COc1ncccc1C(=O)N1CC(c2nc(-c3cccs3)no2)C1" ; what cytotoxicity at 70.5 h value has been reported?
-5.8

Suppose we examine the compound CCOCC1CCCN(C(=O)NCc2ccc(-c3ccn[nH]3)cc2)C1 (stereo unspecified) ; what cytotoxicity at 70.5 h value has been reported?
12.5

Suppose we examine the compound "O=c1[nH]c(N2CCCCC2)nc2nccc(-c3ccc4c(c3)OCO4)c12" ; what cytotoxicity at 70.5 h value has been reported?
-12.9

Suppose we examine the compound "CCN(CC)CCNC(=O)c1cc(OC)c2ccoc2c1" ; what cytotoxicity at 70.5 h value has been reported?
-5.95

Suppose we examine the compound "O=C([C@H]1C[C@H]2OCC[C@H]2N(Cc2ccco2)C1)N1CCCO1" ; what cytotoxicity at 70.5 h value has been reported?
-14.8

Suppose we examine the compound "Cc1cc(C)c2c(C(=O)N(C)C)cc(-c3cnc(N)nc3)nc2c1" ; what cytotoxicity at 70.5 h value has been reported?
-5.25

Suppose we examine the compound "O=C(NC1CC1)N1C[C@@H]2CCN(C(=O)c3cscn3)[C@@H]2C1" ; what cytotoxicity at 70.5 h value has been reported?
10.3

Suppose we examine the compound O=c1cc(CN2CCCCC2c2cccc(F)c2)[nH]c2ncnn12 (stereo unspecified) ; what cytotoxicity at 70.5 h value has been reported?
-10.8

Suppose we examine the compound c1cnc(N2CCOCC3(CCCN(Cc4cc[nH]n4)C3)C2)nc1 (stereo unspecified) ; what cytotoxicity at 70.5 h value has been reported?
-3

Suppose we examine the compound COCCOCC1CCN(C(=O)c2ccc3[nH]cnc3c2)C1 (stereo unspecified) ; what cytotoxicity at 70.5 h value has been reported?
2.45

Suppose we examine the compound CC(C1CC1)N(C)Cc1nnc(-c2ccco2)o1 (stereo unspecified) ; what cytotoxicity at 70.5 h value has been reported?
1.08

Suppose we examine the compound COc1cc(-c2cc(C3CCOC3)c(C#N)c(N)n2)ccc1O (stereo unspecified) ; what cytotoxicity at 70.5 h value has been reported?
-6.12

Suppose we examine the compound "CCc1nnc(CN(C)c2cc(C)nc3c(C)c(C)nn23)o1" ; what cytotoxicity at 70.5 h value has been reported?
-2.11

Suppose we examine the compound "O=C(Cn1ccc2ccc(F)cc21)NCc1ccc(C(=O)O)cc1" ; what cytotoxicity at 70.5 h value has been reported?
18

Suppose we examine the compound CN(Cc1ccc(F)cc1)CC1(O)CCN(C(=O)c2ccn(C)n2)C1 (stereo unspecified) ; what cytotoxicity at 70.5 h value has been reported?
-6.54

Suppose we examine the compound O=C(Cc1cccs1)N1CCOC(c2cccc(O)c2)C1 (stereo unspecified) ; what cytotoxicity at 70.5 h value has been reported?
0.631

Suppose we examine the compound "Cc1ccc(C(=O)NCCn2nc(-n3cncn3)ccc2=O)c(C)c1" ; what cytotoxicity at 70.5 h value has been reported?
29.8

Suppose we examine the compound O=C(NCC1CCCCO1)c1cc(Cn2cnc3ccccc32)[nH]n1 (stereo unspecified) ; what cytotoxicity at 70.5 h value has been reported?
-6.38

Suppose we examine the compound Cc1cc(N(C)C)nc(N2CCCC2c2cc(C)on2)n1 (stereo unspecified) ; what cytotoxicity at 70.5 h value has been reported?
-1.73

Suppose we examine the compound Cc1ccc(C(=O)NC(C)CN2CCCC2=O)c(=O)[nH]1 (stereo unspecified) ; what cytotoxicity at 70.5 h value has been reported?
-5.25

Suppose we examine the compound "Cc1cc(CN2CCN(C(=O)C3CCC3)[C@@H]3CS(=O)(=O)C[C@@H]32)ccc1F" ; what cytotoxicity at 70.5 h value has been reported?
1.76

Suppose we examine the compound CCc1nc(CNCC2CCCN2c2cc(NC)ncn2)cs1 (stereo unspecified) ; what cytotoxicity at 70.5 h value has been reported?
-4.75

Suppose we examine the compound "O=c1c2cccc(C(F)(F)F)c2ncn1CCN1CCNCC1" ; what cytotoxicity at 70.5 h value has been reported?
-1.89

Suppose we examine the compound "CCn1ncc(C(=O)NCCc2nc(-c3ccncc3)n[nH]2)c1C" ; what cytotoxicity at 70.5 h value has been reported?
-7.04

Suppose we examine the compound "O=C(c1ccc(-c2cc[nH]n2)cc1)N1CC[C@H](CO)[C@H](O)C1" ; what cytotoxicity at 70.5 h value has been reported?
0.543

Suppose we examine the compound O=C(C1CCCOC1)N1CCc2ccc(F)cc21 (stereo unspecified) ; what cytotoxicity at 70.5 h value has been reported?
1.26

Suppose we examine the compound "CC(=O)N[C@@H](CC(C)C)C(=O)N1CCC(n2cc(CC(C)C)nn2)CC1" ; what cytotoxicity at 70.5 h value has been reported?
6.61

Suppose we examine the compound Cc1ccncc1CN1CCOCC1c1[nH]ncc1C (stereo unspecified) ; what cytotoxicity at 70.5 h value has been reported?
-1.54

Suppose we examine the compound "Cc1ccc(CN2CCc3nc(C(C)C)nc(O)c3CC2)s1" ; what cytotoxicity at 70.5 h value has been reported?
-4.74

Suppose we examine the compound CN1CCOC(CN(C(=O)COc2ccccc2)c2nccs2)C1 (stereo unspecified) ; what cytotoxicity at 70.5 h value has been reported?
-4

Suppose we examine the compound CCC(C)(NCC(=O)OC)c1nc(C)cs1 (stereo unspecified) ; what cytotoxicity at 70.5 h value has been reported?
-1.12

Suppose we examine the compound CC(C)N1CCN(C)CC(Cc2cc(N(C)C)ncn2)C1 (stereo unspecified) ; what cytotoxicity at 70.5 h value has been reported?
-3.36

Suppose we examine the compound "Cc1nccn1-c1ccc(=O)n(CCNC(=O)c2cccs2)n1" ; what cytotoxicity at 70.5 h value has been reported?
-11.7

Suppose we examine the compound "COCCOc1ccnc(-c2noc([C@@H]3CCCN3C)n2)c1" ; what cytotoxicity at 70.5 h value has been reported?
-3.64

Suppose we examine the compound "O=C(c1ccncc1)N1CCN2C[C@H](Oc3cccnc3)C[C@H]2C1" ; what cytotoxicity at 70.5 h value has been reported?
2.63

Suppose we examine the compound "CCN(Cc1cnn(C)c1)C(=O)c1ccccc1O" ; what cytotoxicity at 70.5 h value has been reported?
-6.92

Suppose we examine the compound "O=C(N[C@@H]1c2ccccc2C[C@@H]1O)C1CCN(Cc2ccco2)CC1" ; what cytotoxicity at 70.5 h value has been reported?
-0.979

Suppose we examine the compound "O=C(NCCN1CCOC1=O)c1cnc(-c2cccnc2)nc1" ; what cytotoxicity at 70.5 h value has been reported?
-3.86

Suppose we examine the compound "CC(C)c1ncncc1C(=O)NCCN1CCCC1" ; what cytotoxicity at 70.5 h value has been reported?
5.71

Suppose we examine the compound Cc1nc(C(C)C)sc1C(=O)N1CCN(C2CN3CCC2CC3)CC1 (stereo unspecified) ; what cytotoxicity at 70.5 h value has been reported?
-6.54

Suppose we examine the compound "Cc1nc(C)c(C(=O)NCc2nc3cccc(C)c3n2C)o1" ; what cytotoxicity at 70.5 h value has been reported?
-0.751

Suppose we examine the compound "O=C1CCCN1c1cccc(CNCc2cc(F)ccc2F)c1" ; what cytotoxicity at 70.5 h value has been reported?
-6.99

Suppose we examine the compound "O=C(O)c1cccc(CC2CCN(c3ncccn3)CC2)c1" ; what cytotoxicity at 70.5 h value has been reported?
3.25

Suppose we examine the compound "Cc1noc(C)c1CN1C[C@H](OCC2CC2)[C@H]2OCCC[C@H]21" ; what cytotoxicity at 70.5 h value has been reported?
-9.93
